B1: Hairpin Ribozyme (parent)
chain: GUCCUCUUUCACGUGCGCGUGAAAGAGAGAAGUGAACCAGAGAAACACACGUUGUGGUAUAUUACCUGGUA

- Variants of: B1
- TEST_DESCRIPTION: self-cleavage, relative activity (ratio to wild type); higher = more cleavage; co-transcriptional
Kind request: treat 0.3 as inclusive, so self-cleavage at 0.3 or higher is label 1, anything lower is label 0.

Task: Record U53G U60C ; criterion: self-cleavage no lower than 0.3. Met?
Output: label 1

Task: Record G25A U60C ; criterion: self-cleavage no lower than 0.3. Met?
Output: label 1

Task: Record G34C C65U ; criterion: self-cleavage no lower than 0.3. Met?
Output: label 1

Task: Record G40A A41G ; criterion: self-cleavage no lower than 0.3. Met?
Output: label 0

Task: Record U33A A49U ; criterion: self-cleavage no lower than 0.3. Met?
Output: label 0

Task: Record C6G A24U ; criterion: self-cleavage no lower than 0.3. Met?
Output: label 1

Task: Record A35C A43C ; criterion: self-cleavage no lower than 0.3. Met?
Output: label 0

Task: Record U58C G69C ; criterion: self-cleavage no lower than 0.3. Met?
Output: label 0

Task: Record C18G A71U ; criterion: self-cleavage no lower than 0.3. Met?
Output: label 1

Task: Record U55G U60A ; criterion: self-cleavage no lower than 0.3. Met?
Output: label 0

Task: Record A26U A47C ; criterion: self-cleavage no lower than 0.3. Met?
Output: label 0

Task: Record C4A G32U ; criterion: self-cleavage no lower than 0.3. Met?
Output: label 0

Task: Record A35C C46A ; criterion: self-cleavage no lower than 0.3. Met?
Output: label 0

Task: Record U7A A24G ; criterion: self-cleavage no lower than 0.3. Met?
Output: label 1

Task: Record A44G A49G ; criterion: self-cleavage no lower than 0.3. Met?
Output: label 0

Task: Record C18A U60A ; criterion: self-cleavage no lower than 0.3. Met?
Output: label 1

Task: Record G34U A44C ; criterion: self-cleavage no lower than 0.3. Met?
Output: label 0

Task: Record A49C G54C ; criterion: self-cleavage no lower than 0.3. Met?
Output: label 0

Task: Record C46G C48A ; criterion: self-cleavage no lower than 0.3. Met?
Output: label 0

Task: Record G27A G56A ; criterion: self-cleavage no lower than 0.3. Met?
Output: label 0

Task: Record U7C G68U ; criterion: self-cleavage no lower than 0.3. Met?
Output: label 0

Task: Record U5C U14G ; criterion: self-cleavage no lower than 0.3. Met?
Output: label 1

Task: Record A26G A30G ; criterion: self-cleavage no lower than 0.3. Met?
Output: label 0

Task: Record C4A U70C ; criterion: self-cleavage no lower than 0.3. Met?
Output: label 0

Task: Record G34A A61G ; criterion: self-cleavage no lower than 0.3. Met?
Output: label 0

Task: Record A35C C48G ; criterion: self-cleavage no lower than 0.3. Met?
Output: label 0

Task: Record G27U U52A ; criterion: self-cleavage no lower than 0.3. Met?
Output: label 1

Task: Record A28U U55C ; criterion: self-cleavage no lower than 0.3. Met?
Output: label 0

Task: Record A35U A71U ; criterion: self-cleavage no lower than 0.3. Met?
Output: label 1

Task: Record A26G A43C ; criterion: self-cleavage no lower than 0.3. Met?
Output: label 0
